- System: Alopecurus myosuroides
- MEASUREMENT_PROTOCOL: Pre-emergence herbicidal activity, ALOMY
- Type: in vivo
- ASSAY_CONDITIONS: 1000 g/Ha, sprayed pre-emergence, evaluated after 13 days, scale 0-5
MEASURED_ATTRIBUTE: ALOMY damage score, application pre-emergence

Example entries and their recorded answers appear below.
>>> measured_value("CN1CC(O)N(c2cc(C(C)(C)F)ncn2)C1=O (stereo not drawn)")
4
>>> measured_value("CCC1C(O)N(c2cc(C(C)(C)C)ncn2)C(=O)N1C (stereo not drawn)")
2
>>> measured_value("CCCOC1C(OCCC)N(c2cc(C(C)(C)C)ncn2)C(=O)N1C (stereo not drawn)")
0

# input Specify ALOMY damage score, application pre-emergence for CON1C(=O)N(c2cc(C(C)(C)C)ncn2)C(O)C1O (stereo not drawn) and stop.
# output 3

# input Specify ALOMY damage score, application pre-emergence for CCC1C(O)N(c2cc(C(C)(C)C)ncn2)C(=O)N1OC (stereo not drawn) and stop.
# output 4
